Origin of the recorded values: the supplement of paper PMC10266784

Consider the following variants and their measured SGCB cell-surface expression functional score (log10) readings.
B1: library; numbered along this chain (parent)
chain: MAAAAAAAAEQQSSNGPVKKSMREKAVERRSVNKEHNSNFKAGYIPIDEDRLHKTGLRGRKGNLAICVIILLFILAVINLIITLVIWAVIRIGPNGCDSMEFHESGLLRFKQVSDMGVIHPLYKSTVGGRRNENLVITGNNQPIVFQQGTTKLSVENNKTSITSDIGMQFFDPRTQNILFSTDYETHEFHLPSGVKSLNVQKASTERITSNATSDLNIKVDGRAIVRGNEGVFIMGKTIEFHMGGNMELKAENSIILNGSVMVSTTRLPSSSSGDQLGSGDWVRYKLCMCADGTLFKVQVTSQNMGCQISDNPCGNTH

# Variants of: B1
# procedureSummary: SGCB cell-surface expression functional score (HA stain, bin4 vs bin1, normalised to synonymous) (log10 ratio); higher = more cell-surface SGCB (functional)
Answer as a number with no unit attached.

Example entries begin here.
- residueChange: "D48L"
  observed: 0.18
- residueChange: "Q147M"
  observed: -0.04
- residueChange: "L135P"
  observed: -1

S114I yielded SGCB cell-surface expression functional score (log10) of 0.12

Documented SGCB cell-surface expression functional score (log10) of N312V : 0.13

Kindly note the recorded SGCB cell-surface expression functional score (log10) for Q112N , which is -1.32

Briefly, SGCB cell-surface expression functional score (log10) measured for Q201M : 1.02

W282N yielded SGCB cell-surface expression functional score (log10) of 0.08
